The reported measurements were obtained from paper PMC11554605.

# SUBJECT OF TEST: human P2X4 (Homo sapiens, UniProt Q99571)
# Construct: expressed in transfected cells
# Sequence (Q99571 whole entry): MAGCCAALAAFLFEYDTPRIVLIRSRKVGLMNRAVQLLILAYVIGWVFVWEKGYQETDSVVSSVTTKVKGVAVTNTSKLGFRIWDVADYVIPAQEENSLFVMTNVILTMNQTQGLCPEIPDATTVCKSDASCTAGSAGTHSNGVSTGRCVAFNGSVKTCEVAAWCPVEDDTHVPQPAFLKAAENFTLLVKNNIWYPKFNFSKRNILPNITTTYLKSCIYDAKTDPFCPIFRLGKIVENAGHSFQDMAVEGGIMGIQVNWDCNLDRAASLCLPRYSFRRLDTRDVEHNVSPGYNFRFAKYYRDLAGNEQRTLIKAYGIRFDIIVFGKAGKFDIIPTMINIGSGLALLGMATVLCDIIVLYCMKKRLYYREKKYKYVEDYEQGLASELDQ
# METHOD DESCRIPTION: Intracellular Ca2+ assay (Fura-2, FlexStation 3), agonist responses in 1321N1 cells stably expressing human P2X4
# Type: cell-based
# PROTOCOL CONDITIONS: 1321N1 cells expressing human P2X4; peak Ca2+ response; read-out: EC50 Human
Hi there, I'd appreciate the recorded EC50 for every entry that follows.
Kindly provide the numeric value in µM only, without the unit symbol.

For the compound Nc1ncnc2c1ncn2C1OC(COP(=O)(O)OP(=O)(O)OP(=O)(O)O)C(OC(=O)c2ccc(C(=O)c3ccccc3)cc2)C1O (stereo not shown) , give its measured EC50 value. 11

Tell us which EC50 value is on record for Nc1ncnc2c1ncn2[C@@H]1O[C@H](COP(=O)(O)OP(=O)(O)OP(=O)(O)O)[C@@H](O)[C@H]1O [ATP, adenosine 5′-triphosphate] 0.747

Return value of EC50 for input CSc1nc(N)c2ncn([C@@H]3O[C@H](COP(=O)(O)OP(=O)(O)OP(=O)(O)O)[C@@H](O)[C@H]3O)c2n1 [2-MeSATP, 2-(Methylthio)adenosine 5′-triphosphate] , no commentary. 2

Give reported EC50 value for C#CCNP(=O)(O)OP(=O)(O)OP(=O)(O)OCC1OC(n2cnc3c(N)ncnc32)C(O)C1O (stereo not shown) [γ-[(Propargyl)-imido]-ATP] 20

* * *

# SUBJECT OF TEST: mouse P2X4 (Mus musculus)
# METHOD DESCRIPTION: Intracellular Ca2+ assay (Fura-2, FlexStation 3), agonist responses in 1321N1 cells stably expressing mouse P2X4
# PROTOCOL CONDITIONS: 1321N1 cells expressing mouse P2X4; peak Ca2+ response
VALUE KIND: EC50 (µM)
Numbers only; they are read as µM.

Send back mouse P2X4 (Mus musculus) EC50 of Nc1ncnc2c1ncn2C1OC(COP(=O)(O)OP(=O)(O)OP(=O)(O)O)C(OC(=O)c2ccc(C(=O)c3ccccc3)cc2)C1O (centres unmarked) only. 24

Fill in EC50 for Nc1ncnc2c1ncn2[C@@H]1O[C@H](CO[P@](=O)(O)O[P@](=O)(O)O[P@@](=O)(O)S)[C@@H](O)[C@H]1O [ATPγS, Adenosine-5′-O-(3-thio-triphosphate)] tested with mouse P2X4 (Mus musculus). 18

Identify measured EC50 obtained with mouse P2X4 (Mus musculus) for C#CCNP(=O)(O)OP(=O)(O)OP(=O)(O)OCC1OC(n2cnc3c(N)ncnc32)C(O)C1O (centres unmarked) [γ-[(Propargyl)-imido]-ATP] . 20

Give EC50; test system mouse P2X4 (Mus musculus); molecule CSc1nc(N)c2ncn([C@@H]3O[C@H](COP(=O)(O)OP(=O)(O)OP(=O)(O)O)[C@@H](O)[C@H]3O)c2n1 [2-MeSATP, 2-(Methylthio)adenosine 5′-triphosphate] 8

# assay system mouse P2X4 (Mus musculus): give EC50 of Nc1ncnc2c1ncn2[C@@H]1O[C@H](COP(=O)(O)OP(=O)(O)OP(=O)(O)O)[C@@H](O)[C@H]1O [ATP, adenosine 5′-triphosphate] 0.565

* * *

# SUBJECT OF TEST: mouse P2X4 (Mus musculus, UniProt Q9JJX6)
# Construct: expressed in transfected cells
# Sequence (Q9JJX6 whole entry): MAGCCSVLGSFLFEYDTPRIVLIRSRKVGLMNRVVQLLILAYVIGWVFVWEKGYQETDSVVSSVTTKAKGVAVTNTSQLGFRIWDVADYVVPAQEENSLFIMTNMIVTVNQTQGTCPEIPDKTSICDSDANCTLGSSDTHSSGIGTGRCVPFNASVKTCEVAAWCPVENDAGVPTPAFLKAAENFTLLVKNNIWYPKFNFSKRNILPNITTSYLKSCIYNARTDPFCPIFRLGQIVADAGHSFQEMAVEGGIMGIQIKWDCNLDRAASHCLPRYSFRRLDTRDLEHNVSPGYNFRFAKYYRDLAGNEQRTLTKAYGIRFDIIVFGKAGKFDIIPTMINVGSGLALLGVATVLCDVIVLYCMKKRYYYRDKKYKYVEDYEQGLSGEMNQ
# METHOD DESCRIPTION: Intracellular Ca2+ assay (Fura-2, FlexStation 3), agonist responses in 1321N1 cells stably expressing mouse P2X4
# Assay type: cell-based
# PROTOCOL CONDITIONS: mouse P2X4
VALUE KIND: Agonist action at mouse P2X4 (in words)

Past entries and their recorded results:
Nc1ccn([C@@H]2O[C@H](COP(=O)(O)OP(=O)(O)OP(=O)(O)O)[C@@H](O)[C@H]2O)c(=O)n1 [CTP, Cytidine 5′-triphosphate] | full agonist
C#CCNP(=O)(O)OP(=O)(O)OP(=O)(O)OCC1OC(n2cnc3c(N)ncnc32)C(O)C1O (stereo not shown) [γ-[(Propargyl)-imido]-ATP] | full agonist
Nc1ncnc2c1ncn2C1OC(COP(=O)(O)OP(=O)(O)OP(=O)(O)O)C(OC(=O)c2ccc(C(=O)c3ccccc3)cc2)C1O (stereo not shown) | partial agonist
CSc1nc(N)c2ncn([C@@H]3O[C@H](COP(=O)(O)OP(=O)(O)OP(=O)(O)O)[C@@H](O)[C@H]3O)c2n1 [2-MeSATP, 2-(Methylthio)adenosine 5′-triphosphate] | partial agonist

Below: the item to evaluate.
State its Agonist action at mouse P2X4 (in words) for this compound: Nc1ncnc2c1ncn2[C@@H]1O[C@H](CO[P@](=O)(O)O[P@](=O)(O)O[P@@](=O)(O)S)[C@@H](O)[C@H]1O [ATPγS, Adenosine-5′-O-(3-thio-triphosphate)] partial agonist
